Data credit: ChEMBL document CHEMBL1201862

Tested on: HOP-92
Assay info: NCI tumour cell line growth inhibition, 48 h
Calls of active or inactive are those of the source. Cut-off read from the data, not from the text of the source: active = GI50 up to about 1.1 µM and inactive = higher. Residues, ends and D or L forms follow the SMILES beside them. *: point of attachment. Boc = CC(C)(C)OC(=O)*; OBn = c1ccc(CO*)cc1

Compound: CNC(=O)c1cccc2c(Nc3ccc(NS(C)(=O)=O)cc3OC)c3cccc(C)c3nc12
GI50: 0.228 µM (active)
//
Compound: CC(NC(=O)CNC(=O)OC(C)(C)C)C(=O)NC(Cc1ccccc1)C(=O)OCc1ccccc1 (stereo not drawn) (Boc-Gly-Ala-Phe-OBn; configuration not given here)
GI50: > 100 µM (inactive)
//
Compound: O=C1CC2(CCC(O)(c3ccc4ccccc4c3)C(C(=O)c3ccc4ccccc4c3)C2)C(=O)c2ccccc2N1 (centres undefined)
GI50: 5.69 µM (inactive)
//
Compound: Cc1nc(N)sc1C(=O)/C=C/c1ccc(/C=C/C(=O)c2sc(NC(=O)CCCCCCCCC(=O)Nc3nc(C)c(C(=O)/C=C/c4ccc(/C=C/C(=O)c5sc(N)nc5C)cc4)s3)nc2C)cc1
GI50: < 0.01 µM (active)
//
Compound: O=C(Oc1cncc(Cl)c1)c1cc2ccccc2sc1=O
GI50: 71.4 µM (inactive)
//
Compound: COP(=O)(OC)C(O)/C=C(\Cl)c1ccc(Cl)cc1 (centres undefined)
GI50: 18.9 µM (inactive)
//
Compound: CCOC(=O)c1csc(NC(=O)CN2CCCC2)n1
GI50: > 100 µM (inactive)
//
Compound: CC(C)CC1c2[nH]c3ccccc3c2C[C@H]2C(=O)NC(COC(C)(C)C)C(=O)N12 (some centres undefined)
GI50: 31.8 µM (inactive)
//
Compound: CCCCCCCCCCCCCCCCCCNc1ccn(C2OC(CO)C(OP(=O)(O)OCC(O)COP(=O)(O)OCC3OC(n4cc(F)c(NCCCCCCCCCCCCCCCCCC)nc4=O)CC3O)C2O)c(=O)n1 (centres undefined)
GI50: > 50 µM (inactive)
//
Compound: CCC(C)[C@H](NC(=O)N[C@H](C)c1ccccc1)C(=O)OC (some centres undefined)
GI50: > 100 µM (inactive)
//
Compound: CSc1ncc2c(C#N)c3sc4ccccc4n3c(=O)c2n1
GI50: > 100 µM (inactive)
//
Compound: CC(C)(C)N/C(N)=N/C#N
GI50: > 100 µM (inactive)
//
Compound: Cc1[nH]c2ccccc2c1C1=NO/C(=N\O)C(c2c(C)[nH]c3ccccc23)C1 (centres undefined)
GI50: 20.8 µM (inactive)
//
Compound: O=C1OCC=C1COC1OC(CO)C(O)C(O)C1O (centres undefined)
GI50: > 100 µM (inactive)
//
Compound: COc1c(Cl)cc(NC(=S)C#N)cc1Cl
GI50: 22.6 µM (inactive)
//
Compound: NC(=S)N/N=C1\C(=O)N(c2cccc([N+](=O)[O-])c2)C(=O)C1C(=O)Nc1cccc([N+](=O)[O-])c1 (centres undefined)
GI50: > 100 µM (inactive)
//
Compound: CC(=O)OCC1OC(n2c(C)c(/N=N/c3ccc(C)cc3)c(C)c(C#N)c2=S)C(OC(C)=O)C(OC(C)=O)C1OC(C)=O (centres undefined)
GI50: 0.895 µM (active)
//
Compound: COc1ccc(NC(=S)c2ccc([N+](=O)[O-])o2)cc1
GI50: 7.8 µM (inactive)
//
Compound: C[N+](C)(C)/C=N\c1cccc2c1CCCC2
GI50: 17.7 µM (inactive)

* * *

Tested on: SK-MEL-5
Assay info: NCI tumour cell line growth inhibition, 48 h
Active and inactive are the calls of the source. No stated cut-off is given here; in the data, active = GI50 up to about 1.1 µM and inactive = higher.
Possible outcomes: active, inactive

Compound: Nc1nc(N)c2cc(Sc3cccc(C(F)(F)F)c3)ccc2n1
System: SK-MEL-5
Assigned label: inactive

Compound: COC12OC3(C4OC41)C(C(=O)O[C@H]3CO[Si](C)(C)C(C)(C)C)C2C(=O)Oc1ccccc1 (stereo partly specified)
System: SK-MEL-5
Assigned label: inactive

Compound: OC[C@@H](O)[C@H](O)[C@@H](O)/C=N/Nc1ccc(Cl)nn1
System: SK-MEL-5
Assigned label: inactive

Compound: O=C1CC2(CCC(O)(c3ccc4ccccc4c3)C(C(=O)c3ccc4ccccc4c3)C2)C(=O)c2ccccc2N1 (stereo unspecified)
System: SK-MEL-5
Assigned label: inactive

Compound: COC(=O)C(=O)C(C(=O)C(=O)Nc1cccc(C(C)=O)c1)c1nc2ccc([N+](=O)[O-])cc2nc1O (stereo unspecified)
System: SK-MEL-5
Assigned label: inactive

Compound: COc1ccc(/N=N/C(=N/NC(=O)c2ccccc2)c2ccc(N(CCC#N)CCC#N)cc2C)cc1
System: SK-MEL-5
Assigned label: inactive

Compound: c1c[nH]c(CN2CCN(Cc3ncc[nH]3)CC2)n1
System: SK-MEL-5
Assigned label: inactive

Compound: COC(=O)/C=C(/C=C1/C(C#N)=C(N)N(c2ccc(Cl)cc2)C1(C)/C(=C\C(=O)OC)C(=O)OC)C(=O)OC (stereo unspecified)
System: SK-MEL-5
Assigned label: inactive

Compound: CC(C)NC(=O)OCc1nnn2c1CCC2
System: SK-MEL-5
Assigned label: inactive

Compound: COc1ccc(C(=O)C(C(=O)C(=O)Nc2ccc(Cl)c(Cl)c2)c2ccc(OC)cc2)cc1 (stereo unspecified)
System: SK-MEL-5
Assigned label: inactive

Compound: CCC(C)[C@H](NC(=O)N[C@H](C)c1ccccc1)C(=O)OC (stereo partly specified)
System: SK-MEL-5
Assigned label: inactive

Compound: COc1ccc(N2C(=O)/C(=C/c3ccc(N(CCC#N)CCC#N)cc3C)N=C2/C=C\c2ccccc2)cc1
System: SK-MEL-5
Assigned label: inactive

Compound: NNc1ncnc2cccc(Cl)c12
System: SK-MEL-5
Assigned label: inactive

Compound: COc1cc2c(cc1C)NC(=O)/C2=C/c1c(Cl)n(-c2ccccc2)c2ccccc12
System: SK-MEL-5
Assigned label: inactive

Compound: Clc1ccc(-c2cn3c(nc4ccccc43)c(-c3ccccc3)n2)cc1
System: SK-MEL-5
Assigned label: inactive

Compound: NN/C(=N\c1ccc(Cl)cc1)NS(=O)(=O)c1ccc(S(=O)(=O)c2ccccc2)s1
System: SK-MEL-5
Assigned label: inactive

Compound: CCN(CC)CCN1c2ccccc2Sc2ccc3ccccc3c21
System: SK-MEL-5
Assigned label: inactive

Compound: N#CC(CCN1CCC(Nc2ccccc2)(c2nnnn2C2CCCCC2)CC1)(c1ccccc1)c1ccccc1
System: SK-MEL-5
Assigned label: inactive

Compound: c1ccc(COC[C@H]2C3OCC([C@H](OCc4ccccc4)[C@H]3OCc3ccccc3)N2Cc2ccccc2)cc1 (stereo partly specified)
System: SK-MEL-5
Assigned label: inactive

Compound: N=c1oc2ccccc2cc1C(=O)Nc1ccccn1
System: SK-MEL-5
Assigned label: inactive

Compound: O=C1c2cc3c(cc2CC12Cc1ccc4c(c1C2=O)CCC4)CCCC3 (stereo unspecified)
System: SK-MEL-5
Assigned label: inactive

Compound: C=C[C@@]12CCCCC1C/C(=C(/O)OC)C(=O)C2 (stereo partly specified)
System: SK-MEL-5
Assigned label: inactive

Compound: O=C1CCN2C(=Nc3cccc4cccc2c34)N1
System: SK-MEL-5
Assigned label: inactive

Compound: COc1cc2c(cc1OC)C(=O)C1(C2)[C@H](c2ccccc2)C2C(=O)c3cc(OC)c(OC)cc3C2[C@H]1c1ccccc1 (stereo partly specified)
System: SK-MEL-5
Assigned label: inactive

Compound: CCOC(=O)c1csc(NC(=O)CCN2CCN(C)CC2)n1
System: SK-MEL-5
Assigned label: inactive

Compound: C[N+](C)(C)CC(=O)N/N=C(\C(=O)NC1=C(Cl)C(=O)c2ccccc2C1=O)C(C#N)c1csc(-c2ccc([N+](=O)[O-])cc2)n1 (stereo unspecified)
System: SK-MEL-5
Assigned label: inactive

Compound: O=C(O)c1nccnc1C(=O)O
System: SK-MEL-5
Assigned label: inactive

Compound: C/C=C/[C@@]1(OC(=O)c2ccccc2)C[C@@H]2CCCC[C@@H]21
System: SK-MEL-5
Assigned label: inactive

Compound: CC(=O)O[C@H]1CC[C@@]2(C)[C@H](CC[C@@H]3[C@@H]2CC[C@]2(C)[C@@H](c4ccc(=O)oc4)C[C@H]4O[C@]342)C1
System: SK-MEL-5
Assigned label: active

Compound: CC(C)N(C)C(=O)C12C3C4C1C1C2C3C41C#N (stereo unspecified)
System: SK-MEL-5
Assigned label: inactive

Compound: FC(F)(F)c1nc(Br)[nH]c1C(F)(F)F
System: SK-MEL-5
Assigned label: inactive

* * *

Test system: NCI-H226
Assay info: NCI tumour cell line growth inhibition, 48 h
The source made the active and inactive calls. Rule as the data show it: active = GI50 up to about 1.1 µM and inactive = higher.
Quick list: GI50 per entry.

Compound: N/C(=N\c1ccc(Cl)cc1)NS(=O)(=O)c1ccc(S(=O)(=O)c2ccccc2)s1
GI50: 26.4 µM (inactive)
--
Compound: COC1CC(C)(NC(=O)C(F)(F)F)C2OC(c3ccccc3)OCC2O1 (configuration not stated)
GI50: > 100 µM (inactive)
--
Compound: O=C1CCCCCCCCCCOC(=O)CCCCCCCCCCO1
GI50: > 100 µM (inactive)
--
Compound: CC(=O)OCc1cn(S(=O)(=O)c2ccc(C)cc2)cn1
GI50: > 100 µM (inactive)
--
Compound: O=c1[nH]nc(Nc2ccc(Cl)cc2)c2nnn(-c3ccc([N+](=O)[O-])cc3)c12
GI50: 42.1 µM (inactive)
--
Compound: C=C1C(=O)OC2/C=C(\C)C(O)/C=C\C(C)(O)CC(OC(=O)/C(C)=C/C)C12 (configuration not stated)
GI50: > 100 µM (inactive)
--
Compound: COc1ccc2oc(=O)cc(C)c2c1
GI50: > 100 µM (inactive)
